Assay: yeast display, Sf9 membrane polyspecificity reagent, FACS + sequencing; frameworks hold sequencing errors
measurement_type: polyreactivity (PSR sort gate)

{"columns": ["seq_string", "test_result"],
 "data": [
  ["QVQLVESGGGLVQAGGSLRLSCAASGITFYIYAMGCYRHAPGKERELVAAISSTGGSTYYADSVKGSFTISRDNAKNTVYLQMNSLKPEDNAVYYCNAVFRGTGDYWGQGTQVTVSS", "high polyreactivity"],
  ["QVQLVESGGGLVQAGGSLRLSCAASGFIFWQYTMGWYRPAPGKERELVAAINGGSATYYADSVKGRFTISRDNAKNTVYLQMNSLKPEDTAVYYCAADRYLYHYRYEYYYWGQGTQVTVSS", "high polyreactivity"]
]}

---

Assay: yeast display, Sf9 membrane polyspecificity reagent, FACS + sequencing; frameworks hold sequencing errors
measurement_type: polyreactivity (PSR sort gate)

{"columns": ["seq_string", "test_result"],
 "data": [
  ["QVQLVESGGGLVQAGGSLRLSCAASGSTFSNNAMGWYRQAPGKERELVASTNYADSVKGRFTISRDNEKNTVYLQMNSLKPEDTAVYYCAAGAYPSWGLDFWGQGTQVTVSS", "low polyreactivity"],
  ["QVQLVESGGGLVQAGGSLRLSCAASGSIFWVYAMGWYRQAPGKEREFVATISTDGGSTHYADSVKGRFTISRDNAKNTFYLQMNSLKPEDTAVYYCAADTPWYDDNYDYWGQGTQVTVSS", "low polyreactivity"],
  ["QVQLVESGGGLVQAGGSLRLSCAASGSIFYVYAMGWYRQAPGKERELVASINKYGGSTYYADSVKGRFTISRDNAKNTVYLQMNSLKPADTAVYYCAARTGWPRVGFQYPAHVGFDYWGQGTQVTVSS", "low polyreactivity"]
]}

---

Test: yeast display, Sf9 membrane polyspecificity reagent, FACS + sequencing; frameworks hold sequencing errors
measurement_type: polyreactivity (PSR sort gate)

{"columns": ["seq_string", "test_result"],
 "data": [
  ["QDQLVETVGVLDKAGGSLRLSCAASGRTFAIYAMAWYRQAPGKEREFVAASSWSGGDSYYADSVKGRFTISRDNAKNSVYLQMNSLKPEHTAVYYCAARDNDYEGRYLQYDLDYWGQGTQVTVST", "low polyreactivity"],
  ["QVQLVESGGGLVQAGGSLRLSCAASGRIFIAYTMGWYRPAPGKERELVAAITWNGGSTYYADSVKGRFTISRDNAKNTVYLQMNSLKPEDTAVYYWVVVSRPGPKPAREMDYWGQGTQVTVSS", "low polyreactivity"],
  ["QVQLVESGGGLVQAGGSLRLSCAASGFIFFVNAMGWYRQAPGKEREFVATITGSGGSKYYADSVKGRFTISRDIAKNTVYLQMISLKPEDTAVYYCNAETYIVLRGKFPVEYDYWGQGTQVTVSS", "low polyreactivity"]
]}

---

Assay: yeast display, Sf9 membrane polyspecificity reagent, FACS + sequencing; frameworks hold sequencing errors
measurement_type: polyreactivity (PSR sort gate)

{"columns": ["seq_string", "test_result"],
 "data": [
  ["QVQLVESGGGLVQAGGSLRLSCAASGSTFYGYAMGWYRQAPGKERELVAAITRSGGSTYYADSVKGRFTISRDNAKNTVYLQMNSLKPEDTEVYYCNKYGYKGGVGYDYWGQGTQVTVSS", "high polyreactivity"],
  ["QVQLVESGGGLVQAGGSLRLSCAASGRIIGTNAMGWYRQAPGKEREMVAAITWRGGSTYYADSVKGRFTYSRDNAKNTVYLQKNSLKPEDTAVYYCNKDPPRFSGLDENDWGQGTQVTVSS", "low polyreactivity"],
  ["QVQLVESGGGLVQAGGSLRLSCAASGSTFSVNAMGWYRQAPGKEREFVARITWRGGSTYYADSVKRRFTISRDNAKNTVYLPMNSLKPEDTAVYYCAATLRYWWRSSYEDYYWGQGTQVTVSS", "low polyreactivity"],
  ["QVQLVESGGGLVQAGGSLRLSCAASGSIFYVYAMGWYGQAPGKDRELVASISWGDSSTYYADSVKGRFTISRDTAKNTVYLQMNSLKPEDTAVYYCAADEYRQYALYDYWGQGTQVTVSS", "low polyreactivity"],
  ["QVQLVESGGGLVQAGGSLRLSCAASGTIFNRYAMGWYRQAPGKERELVAAITRGGTTYYADSVKGRFTISRDNATNTVYLQMNSLKPEDTAVYYCAARLRYTTVIYYYWGQGTQVTVSS", "high polyreactivity"],
  ["QVQLVESGGGLVQAGGRLRLSCAASGRIFNKYVMGWYRQAPGKERELVAAISGRGGSTYYADSVKGRFTISRDYEKNTVYLQMNSLKPEDSAVYYCAAEYQGRRMYYWGQGTQVTVSS", "high polyreactivity"],
  ["QVQLVESGGGLVQAGGSLRLSCAASGRTSWYYAMGWYRQAPGKERELVAAISVRAGSTYYADSVKGRFTISRDNAKNTVYLQMNSLKPEDTAVYYCAREYSPYTSRRDYWGQGTQVTVSS", "high polyreactivity"],
  ["QVQLVESGGGLVQAGGSLRLSCAASGNTFLWYAMGWYRQAPGKERELGAAISRGGGSTYYADSVKGRFTISRDNAKNTVYLQMNSLKPEDTAVYYCAARTYYSARSIHYREFEYWGQGTQVTVSS", "high polyreactivity"],
  ["QVQLVESGGGLVQAGGSLRLSCAASGRTFYRYVMGWYRQAPGKERELVAAITPGGSTYADSVKGRFTISRDNAKNTVYLQMNSLKPEDTAVYYCNAKVGAYLNYGYWGQGTQVTVSS", "low polyreactivity"]
]}

Data credit: the nanobody polyreactivity screen of Harvey et al. (2022)
